Cited source for all entries: patent US20220235064A1

Below, each entry is listed with its recorded cytotoxicity at 5 µM.
system: cancer cell line KM12C, in which RON is activated; assay: Cell-killing efficacy in RON-activated cancer cell line (trypan blue); assay type: cell-based; conditions: Homo sapiens, 5 μM, 48 hours, trypan blue, n=2, read-out: Cell death (%) Cancer cell line KM12C
Counter-ions that a name gives are not always drawn.

{"columns": ["compound", "unit-label", "cytotoxicity at 5 µM"],
 "data": [
  ["COc1cc2c(Oc3ccc(NC(=O)c4c5c(cn(-c6ccc(F)cc6)c4=O)CCO5)cc3F)ccnc2cc1OCCN1CCOCC1 [Example 78]", "%", 23.9],
  ["COC1CCN(Cc2ccc(-c3cc4nccc(Oc5ccc(NC(=O)c6c7c(cn(-c8ccc(F)cc8)c6=O)CCO7)cc5F)c4s3)nc2)C1 (stereo not shown) [Example 25]", "%", 21],
  ["O=C(Nc1ccc(Oc2ccnc3cc(-c4ccc(CN5CCOCC5)cn4)sc23)c(F)c1)c1c2c(cn(-c3ccccc3)c1=O)CCO2 [Example 6, hydrochloride]", "%", 34.3],
  ["COc1cc2ncnc(Oc3ccc(NC(=O)c4c5c(cn(-c6ccc(F)cc6)c4=O)CCO5)cc3F)c2cc1OC [Example 46]", "%", 27.4],
  ["COc1cc2c(Oc3ccc(NC(=O)c4c5c(cn(-c6ccc(F)cc6)c4=O)CCO5)cc3F)ccnc2cc1OCCN1CC(F)(F)C1 [Example 124]", "%", 57.3],
  ["COc1cc2nccc(Oc3ccc(NC(=O)c4c5c(cn(-c6ccccc6)c4=O)CCO5)cc3F)c2cc1OC [Example 41]", "%", 21.4],
  ["Cn1cc(-c2cc3nccc(Oc4ccc(NC(=O)c5c6c(cn(-c7ccc(F)cc7)c5=O)CCO6)cc4F)c3s2)cn1 [Example 10]", "%", 21.9],
  ["O=C(Nc1ccc(Oc2ccnc3cc(OCCCN4CCOCC4)ccc23)c(F)c1)c1c2c(cn(-c3ccc(F)cc3)c1=O)CCO2 [Example 158]", "%", 37.1],
  ["N#CC1CN(Cc2ccc(-c3cc4nccc(Oc5ccc(NC(=O)c6c7c(cn(-c8ccc(F)cc8)c6=O)CCO7)cc5F)c4s3)nc2)C1 [Example 19]", "%", 21.9],
  ["CC1CCN(Cc2ccc(-c3cc4nccc(Oc5ccc(NC(=O)c6c7c(cn(-c8ccc(F)cc8)c6=O)CCO7)cc5F)c4s3)nc2)CC1 [Example 36]", "%", 30],
  ["CNC(=O)c1cc2nccc(Oc3ccc(NC(=O)c4c5c(cn(-c6ccc(F)cc6)c4=O)CCO5)cc3F)c2cc1OC [Example 165]", "%", 32.9],
  ["COc1cc2c(Oc3ccc(NC(=O)c4c5c(cn(-c6ccc(F)cc6)c4=O)CCO5)cc3F)ccnc2cc1NC(=O)CCN1CCOCC1 [Example 183]", "%", 40.3],
  ["COc1cc2c(Oc3ccc(NC(=O)c4c5c(cn(-c6ccc(F)cc6)c4=O)CCO5)cc3F)ccnc2cc1OCCCN1CCN(C)CC1 [Example 80]", "%", 19.9]
]}

====

target: RON tyrosine kinase (Homo sapiens); construct: purchased Carna Bioscience; experiment: Enzyme inhibitory activity against RON tyrosine kinase (TR-FRET); assay type: biochemical; settings: RON (Carna Bioscience)
Sequence (Q04912 25-1400): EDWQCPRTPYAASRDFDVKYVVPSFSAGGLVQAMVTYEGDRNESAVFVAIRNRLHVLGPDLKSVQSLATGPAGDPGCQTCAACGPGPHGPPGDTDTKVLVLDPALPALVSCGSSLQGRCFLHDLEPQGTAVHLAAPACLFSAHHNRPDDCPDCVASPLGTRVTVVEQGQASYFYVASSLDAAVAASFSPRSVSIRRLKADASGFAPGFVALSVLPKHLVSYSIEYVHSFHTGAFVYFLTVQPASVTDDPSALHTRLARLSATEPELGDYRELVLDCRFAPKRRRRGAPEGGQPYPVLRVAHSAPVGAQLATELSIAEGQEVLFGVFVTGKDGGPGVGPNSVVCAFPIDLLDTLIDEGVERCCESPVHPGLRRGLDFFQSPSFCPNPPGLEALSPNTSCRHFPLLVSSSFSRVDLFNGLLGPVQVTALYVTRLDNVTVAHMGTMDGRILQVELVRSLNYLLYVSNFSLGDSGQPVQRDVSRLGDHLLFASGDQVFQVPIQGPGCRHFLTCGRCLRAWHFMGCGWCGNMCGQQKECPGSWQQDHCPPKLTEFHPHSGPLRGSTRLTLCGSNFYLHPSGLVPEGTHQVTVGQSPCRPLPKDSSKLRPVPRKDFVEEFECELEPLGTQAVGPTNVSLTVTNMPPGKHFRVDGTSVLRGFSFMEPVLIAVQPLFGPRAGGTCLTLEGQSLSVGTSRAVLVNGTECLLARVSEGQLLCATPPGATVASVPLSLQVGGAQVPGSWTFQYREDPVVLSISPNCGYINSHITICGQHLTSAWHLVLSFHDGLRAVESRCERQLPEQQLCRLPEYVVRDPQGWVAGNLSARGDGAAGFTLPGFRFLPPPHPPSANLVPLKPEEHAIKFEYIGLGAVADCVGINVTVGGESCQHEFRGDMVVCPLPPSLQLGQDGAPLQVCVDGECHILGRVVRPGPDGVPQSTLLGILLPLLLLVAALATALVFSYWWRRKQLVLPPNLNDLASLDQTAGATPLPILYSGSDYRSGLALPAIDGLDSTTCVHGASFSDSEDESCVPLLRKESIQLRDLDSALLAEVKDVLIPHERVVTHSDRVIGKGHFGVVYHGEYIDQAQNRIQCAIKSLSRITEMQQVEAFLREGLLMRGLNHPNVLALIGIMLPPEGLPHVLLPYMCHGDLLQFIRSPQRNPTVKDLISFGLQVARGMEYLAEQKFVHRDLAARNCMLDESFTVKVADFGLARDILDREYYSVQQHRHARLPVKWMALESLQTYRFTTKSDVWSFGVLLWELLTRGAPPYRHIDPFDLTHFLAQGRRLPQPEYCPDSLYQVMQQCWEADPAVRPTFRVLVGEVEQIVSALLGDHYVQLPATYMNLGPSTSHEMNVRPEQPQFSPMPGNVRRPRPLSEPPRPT
pIC50: −log10 of the molar value. Counter-ions that a name gives are not always drawn.
Below, each entry is listed with its recorded pIC50.

{"columns": ["compound", "readout-qualifier", "pIC50"],
 "data": [
  ["COc1cc2nccc(Oc3ccc(NC(=O)c4c5c(cn(-c6ccc(F)cc6)c4=O)CCO5)cc3F)c2cc1NC(C)=O", "=", 8.74],
  ["COCCNCc1ccc(-c2cc3nccc(Oc4ccc(NC(=O)c5c6c(cn(-c7ccc(F)cc7)c5=O)CCO6)cc4F)c3s2)nc1 [Example 1, hydrochloride]", "=", 9.09],
  ["O=C(Nc1ccc(Oc2ccnc3cc(OCCN4CCOCC4)c(C(F)(F)F)cc23)c(F)c1)c1c2c(cn(-c3ccc(F)cc3)c1=O)CCO2", "<", 7.00],
  ["O=C(Nc1ccc(Oc2cc(NC3CCOCC3)ncn2)c(F)c1)c1c2c(cn(-c3ccc(F)cc3)c1=O)CCO2", "=", 8.65]
]}
